Experiment: Part 2 mass balance
Assay type: in vivo, human
Details: human, plasma, po, 200 mg

Smiles str | AUC(0-inf) [ng·h/mL]
O[C@H](C[C@H]1c2c(F)cccc2-c2cncn21)[C@H]1CC[C@H](O)CC1 | 1540

----------
Assay: Part 2 mass balance
Type: in vivo, human
Settings: human, plasma, po, 200 mg
Readout: AUC(0-t) (ng·h/mL)

Smiles str | Readout | Unit string | Meas value
O[C@H](C[C@H]1c2c(F)cccc2-c2cncn21)[C@H]1CC[C@H](O)CC1 | AUC(0-t) | ng·h/mL | 1510

----------
Assay: Part 2 mass balance
Assay type: in vivo, human
Conditions: human, urine and plasma, oral, 200 mg
Readout: CL renal (mL/min)

Smiles str | Readout | Unit string | Meas value
O[C@H](C[C@H]1c2c(F)cccc2-c2cncn21)[C@H]1CC[C@H](O)CC1 | CL renal | mL/min | 20.3

----------
Format: in vivo, human
Settings: human, plasma, iv, 5 mg

Smiles str | Unit string | Tmax
O[C@H](C[C@H]1c2c(F)cccc2-c2cncn21)[C@H]1CC[C@H](O)CC1 | min | 5

----------
Assay: Part 2 mass balance
Assay type: in vivo, human
Details: human, plasma, po, 200 mg
Readout: Vd/F (L)

Compound | Meas value
O[C@H](C[C@H]1c2c(F)cccc2-c2cncn21)[C@H]1CC[C@H](O)CC1 [navoximod] | 1680

----------
Assay: Solubility in water and other physiological relevant media
Assay type: physicochemical
Readout: solubility (mg/mL)

Smiles str | Unit string | Meas value
O[C@H](C[C@H]1c2c(F)cccc2-c2cncn21)[C@H]1CC[C@H](O)CC1 | mg/mL | 200

----------
Type: in vivo, human
Conditions: human, plasma, oral, 200 mg

Compound | AUC(0-t)
O[C@H](C[C@H]1c2c(F)cccc2-c2cncn21)[C@H]1CC[C@H](O)CC1 [navoximod] | 4.4 µM·h

----------
Type: in vivo, human
Details: human, plasma, po, 200 mg

Compound | Unit string | Vd/F
O[C@H](C[C@H]1c2c(F)cccc2-c2cncn21)[C@H]1CC[C@H](O)CC1 [navoximod] | L | 1780

----------
Experiment: Part 2 mass balance
Type: in vivo, human
Settings: human, plasma, po, 200 mg

Compound | Unit string | Cmax
O[C@H](C[C@H]1c2c(F)cccc2-c2cncn21)[C@H]1CC[C@H](O)CC1 [navoximod] | ng/mL | 464

----------
Type: in vivo, human
Conditions: human, plasma, po, 200 mg
Readout: AUC(0-inf) (ng·h/mL)

Compound | Readout | Meas value
O[C@H](C[C@H]1c2c(F)cccc2-c2cncn21)[C@H]1CC[C@H](O)CC1 [navoximod] | AUC(0-inf) | 1790
